test system: HOP-62; test: NCI human cancer cell line screen, antiproliferative activity, Lung HOP-62; type: cell-based; settings: concentration corresponding to 50% growth inhibition, read-out: cytotoxicity GI50, Lung HOP-62
Under this convention, MET denotes GI50 strictly below 5 µM and NOT MET denotes GI50 at or above 5 µM.

>  <Compound>
COC(=O)CSC1CC(=O)OC(C)CCCC=CC2CC(O)CC2C1O (stereo not shown)

>  <Cat>
NOT MET

$$$$
>  <Compound>
C[C@H]1CCC/C=C/[C@@H]2C[C@H](O)C[C@H]2[C@@H](O)[C@H]([S+]([O-])CCN(C)C)CC(=O)O1 (stereo partly shown)

>  <Cat>
MET

$$$$
>  <Compound>
CC1CCCC=CC2CC(O)CC2C(O)[C@H]([S+]([O-])CCN)CC(=O)O1 (stereo partly shown)

>  <Cat>
MET

$$$$
>  <Compound>
CC1CCCC=CC2CC(O)CC2C(O)C([S+]([O-])C[C@H](N)C(=O)O)CC(=O)O1 (stereo partly shown)

>  <Cat>
MET

$$$$
>  <Compound>
C[C@H]1CCC/C=C/[C@@H]2C[C@H](OC(=O)CCC(=O)O)C[C@H]2[C@H](OC(=O)CCC(=O)O)/C=C/C(=O)O1 [Compound 24, Brefeldin A Disuccinate]

>  <Cat>
NOT MET

$$$$
>  <Compound>
CC1CCCC=CC2CC(O)CC2C(O)[C@H](SCC(O)CO)CC(=O)O1 (stereo partly shown)

>  <Cat>
NOT MET

$$$$
